Let's look at some compounds and their measured Avg (Caspase 7 Cl D198).
# Test system: HCT116
# experiment notes: Reverse Phase Protein Analysis (RPPA)
# Type: cell-based, human
# reported conditions: % change from DMSO (matched cell line)
Report as a plain number; the unit % is understood.

Query: Give the measured Avg (Caspase 7 Cl D198) of O=C(Nc1ccc2[nH]nc(-c3ccncc3)c2c1)[C@@H]1CCN(CC(=O)N2CCN(c3ccc(-c4ncccn4)cc3)CC2)C1 .
Response: −16.35

Query: Give the measured Avg (Caspase 7 Cl D198) of Cn1nccc1Nc1nccc(-c2ccn([C@H](CO)c3ccc(Cl)c(F)c3)c(=O)c2)n1 .
Response: −13.99

Query: Give the measured Avg (Caspase 7 Cl D198) of Cc1cnc(Nc2ccc(F)cc2Cl)nc1-c1c[nH]c(C(=O)N[C@H](CO)c2cccc(Cl)c2)c1 [Vx-11e] .
Response: −11.41

Attention now turns to another entry.
Query: Give the measured Avg (Caspase 7 Cl D198) of CC(C)Nc1cc(-c2c[nH]c(C(=O)N[C@H](CO)c3cccc(Cl)c3)c2)c(Cl)cn1 .
Response: −21.09

---

# Tested on: AN3Ca
# experiment notes: Reverse Phase Protein Analysis (RPPA)
# Format: cell-based
# reported conditions: % change from DMSO (matched cell line)
# Description: Control wells were treated with DMSO at 0.1% (v/v) for 6 hours prior to cell lysate generation. Samples were then analyzed using reverse-phase protein microarray technology (Theranostics Health). Cell lines with common alterations in BRAF and RAS were assayed: BRAF^V600E mutant lines A375, Colo205, and HT29; KRAS^G12C-mutant cell line MIAPACa-2; KRAS^G13D-mutant cell line HCT116; and AN3Ca with atypical HRAS^F82L mutation. […]
Let's look at some compounds and their measured Avg (mTOR).
Report as a plain number; the unit % is understood.

// worked examples, Avg (mTOR) included
Query: Give the measured Avg (mTOR) of Cc1cnc(Nc2ccc(F)cc2Cl)nc1-c1c[nH]c(C(=O)N[C@H](CO)c2cccc(Cl)c2)c1 [Vx-11e] .
Response: −6.27

Query: Give the measured Avg (mTOR) of Cn1nccc1Nc1nccc(-c2ccn([C@H](CO)c3ccc(Cl)c(F)c3)c(=O)c2)n1 [GDC-0994] .
Response: −2.85

Query: Give the measured Avg (mTOR) of CC(C)Nc1cc(-c2c[nH]c(C(=O)N[C@H](CO)c3cccc(Cl)c3)c2)c(Cl)cn1 [BVD-523] .
Response: 5.58

Attention now turns to another entry.
Query: Give the measured Avg (mTOR) of O=C(Nc1ccc2[nH]nc(-c3ccncc3)c2c1)[C@@H]1CCN(CC(=O)N2CCN(c3ccc(-c4ncccn4)cc3)CC2)C1 [SCH772984] .
Response: −5.33

---

# Test system: AN3Ca
# experiment notes: Reverse Phase Protein Analysis (RPPA)
# Format: cell-based
# reported conditions: % change from DMSO (matched cell line)
# Protocol: Control wells were treated with DMSO at 0.1% (v/v) for 6 hours prior to cell lysate generation. Samples were then analyzed using reverse-phase protein microarray technology (Theranostics Health). Cell lines with common alterations in BRAF and RAS were assayed: BRAF^V600E mutant lines A375, Colo205, and HT29; KRAS^G12C-mutant cell line MIAPACa-2; KRAS^G13D-mutant cell line HCT116; and AN3Ca with atypical HRAS^F82L mutation. […]
quantity kind: Avg (Mcl1) (%)
Report as a plain number; the unit % is understood.

Query: Give the measured Avg (Mcl1) of O=C(Nc1ccc2[nH]nc(-c3ccncc3)c2c1)[C@@H]1CCN(CC(=O)N2CCN(c3ccc(-c4ncccn4)cc3)CC2)C1 .
Response: −7.15

Query: Give the measured Avg (Mcl1) of CC(C)Nc1cc(-c2c[nH]c(C(=O)N[C@H](CO)c3cccc(Cl)c3)c2)c(Cl)cn1 .
Response: −4.9

Query: Give the measured Avg (Mcl1) of Cn1nccc1Nc1nccc(-c2ccn([C@H](CO)c3ccc(Cl)c(F)c3)c(=O)c2)n1 .
Response: −4.16

Query: Give the measured Avg (Mcl1) of Cc1cnc(Nc2ccc(F)cc2Cl)nc1-c1c[nH]c(C(=O)N[C@H](CO)c2cccc(Cl)c2)c1 [Vx-11e] .
Response: −4.24

---

# experiment notes: Phase I study: pharmacokinetic analysis
# Type: in vivo, human
# reported conditions: human, plasma, oral, 300 mg, 300 mg BID; Day 1; read-out: AUC0-12 ± SD
quantity kind: AUC(0-t) (ng·h/mL)
Report as a plain number; the unit ng·h/mL is understood.

Query: Give the measured AUC(0-t) of CC(C)Nc1cc(-c2c[nH]c(C(=O)N[C@H](CO)c3cccc(Cl)c3)c2)c(Cl)cn1 [BVD-523] .
Response: 4110

---

Let's look at some compounds and their measured Avg (Chk1 S345).
# Test system: Colo205
# experiment notes: Reverse Phase Protein Analysis (RPPA)
# Type: cell-based, human
# reported conditions: % change from DMSO (matched cell line)
Report as a plain number; the unit % is understood.

// worked examples, Avg (Chk1 S345) included
Query: Give the measured Avg (Chk1 S345) of Cc1cnc(Nc2ccc(F)cc2Cl)nc1-c1c[nH]c(C(=O)N[C@H](CO)c2cccc(Cl)c2)c1 [Vx-11e] .
Response: 13.12

Query: Give the measured Avg (Chk1 S345) of Cn1nccc1Nc1nccc(-c2ccn([C@H](CO)c3ccc(Cl)c(F)c3)c(=O)c2)n1 [GDC-0994] .
Response: 6.08

Continuing:
Query: Give the measured Avg (Chk1 S345) of CC(C)Nc1cc(-c2c[nH]c(C(=O)N[C@H](CO)c3cccc(Cl)c3)c2)c(Cl)cn1 [BVD-523] .
Response: −4.63

Query: Give the measured Avg (Chk1 S345) of O=C(Nc1ccc2[nH]nc(-c3ccncc3)c2c1)[C@@H]1CCN(CC(=O)N2CCN(c3ccc(-c4ncccn4)cc3)CC2)C1 [SCH772984] .
Response: 1

---

# Tested on: MIAPaCa-2
# experiment notes: Reverse Phase Protein Analysis (RPPA)
# Type: cell-based
# reported conditions: MIAPaca2; % change from DMSO (matched cell line)
Let's look at some compounds and their measured Avg (Stat3).
Report as a plain number; the unit % is understood.

// worked examples, Avg (Stat3) included
Query: Give the measured Avg (Stat3) of CC(C)Nc1cc(-c2c[nH]c(C(=O)N[C@H](CO)c3cccc(Cl)c3)c2)c(Cl)cn1 .
Response: −1.23

Query: Give the measured Avg (Stat3) of O=C(Nc1ccc2[nH]nc(-c3ccncc3)c2c1)[C@@H]1CCN(CC(=O)N2CCN(c3ccc(-c4ncccn4)cc3)CC2)C1 .
Response: −9.19

Query: Give the measured Avg (Stat3) of Cn1nccc1Nc1nccc(-c2ccn([C@H](CO)c3ccc(Cl)c(F)c3)c(=O)c2)n1 .
Response: −9.44

Attention now turns to another entry.
Query: Give the measured Avg (Stat3) of Cc1cnc(Nc2ccc(F)cc2Cl)nc1-c1c[nH]c(C(=O)N[C@H](CO)c2cccc(Cl)c2)c1 [Vx-11e] .
Response: 0.61

---

Let's look at some compounds and their measured Avg (Bad S136).
# Tested on: Colo205
# experiment notes: Reverse Phase Protein Analysis (RPPA)
# Format: cell-based, human
# reported conditions: % change from DMSO (matched cell line)
Report as a plain number; the unit % is understood.

Query: Give the measured Avg (Bad S136) of Cc1cnc(Nc2ccc(F)cc2Cl)nc1-c1c[nH]c(C(=O)N[C@H](CO)c2cccc(Cl)c2)c1 [Vx-11e] .
Response: −1.01

Query: Give the measured Avg (Bad S136) of O=C(Nc1ccc2[nH]nc(-c3ccncc3)c2c1)[C@@H]1CCN(CC(=O)N2CCN(c3ccc(-c4ncccn4)cc3)CC2)C1 [SCH772984] .
Response: 1.88

Query: Give the measured Avg (Bad S136) of Cn1nccc1Nc1nccc(-c2ccn([C@H](CO)c3ccc(Cl)c(F)c3)c(=O)c2)n1 [GDC-0994] .
Response: 4

Query: Give the measured Avg (Bad S136) of CC(C)Nc1cc(-c2c[nH]c(C(=O)N[C@H](CO)c3cccc(Cl)c3)c2)c(Cl)cn1 [BVD-523] .
Response: 5.05

---

# Tested on: AN3Ca
# experiment notes: Reverse Phase Protein Analysis (RPPA)
# Assay type: cell-based
# reported conditions: % change from DMSO (matched cell line)
Let's look at some compounds and their measured Avg (Chk1 S345).
Report as a plain number; the unit % is understood.

Query: Provide the documented Avg (Chk1 S345) with AN3Ca as the system for Cn1nccc1Nc1nccc(-c2ccn([C@H](CO)c3ccc(Cl)c(F)c3)c(=O)c2)n1 [GDC-0994]
Response: 15.46

Query: Provide the documented Avg (Chk1 S345) with AN3Ca as the system for CC(C)Nc1cc(-c2c[nH]c(C(=O)N[C@H](CO)c3cccc(Cl)c3)c2)c(Cl)cn1 [BVD-523]
Response: −13.34

Continuing:
Query: Provide the documented Avg (Chk1 S345) with AN3Ca as the system for Cc1cnc(Nc2ccc(F)cc2Cl)nc1-c1c[nH]c(C(=O)N[C@H](CO)c2cccc(Cl)c2)c1 [Vx-11e]
Response: −9.54

Query: Provide the documented Avg (Chk1 S345) with AN3Ca as the system for O=C(Nc1ccc2[nH]nc(-c3ccncc3)c2c1)[C@@H]1CCN(CC(=O)N2CCN(c3ccc(-c4ncccn4)cc3)CC2)C1 [SCH772984]
Response: 14.56

All figures here come from patent US20210038587A1.
